target: Acetylcholinesterase (Mus musculus, UniProt P21836)
Sequence (P21836 whole entry): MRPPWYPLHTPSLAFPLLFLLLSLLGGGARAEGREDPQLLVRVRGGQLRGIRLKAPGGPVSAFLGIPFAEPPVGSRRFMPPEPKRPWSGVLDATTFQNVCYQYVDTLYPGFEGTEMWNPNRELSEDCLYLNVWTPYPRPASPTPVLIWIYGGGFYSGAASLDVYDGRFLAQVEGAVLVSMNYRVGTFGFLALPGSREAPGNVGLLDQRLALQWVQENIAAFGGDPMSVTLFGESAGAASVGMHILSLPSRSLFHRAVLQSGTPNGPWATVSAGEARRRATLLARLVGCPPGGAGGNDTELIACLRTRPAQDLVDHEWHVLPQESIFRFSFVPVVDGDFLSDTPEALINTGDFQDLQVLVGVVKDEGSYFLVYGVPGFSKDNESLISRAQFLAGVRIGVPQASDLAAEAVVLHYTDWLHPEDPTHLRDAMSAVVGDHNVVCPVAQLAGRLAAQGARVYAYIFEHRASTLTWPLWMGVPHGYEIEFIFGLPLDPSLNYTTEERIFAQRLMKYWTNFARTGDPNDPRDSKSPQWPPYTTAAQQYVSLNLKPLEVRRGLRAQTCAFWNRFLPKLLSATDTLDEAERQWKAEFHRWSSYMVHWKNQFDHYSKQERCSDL
Decide using IC50 alone. Strictly below 40 µM: 1 (yes). Equal to or above 40 µM: 0 (no).

State whether 40 µM exceeds IC50 recorded for Cn1c(NCCNc2c3c(nc4cc(Cl)ccc24)CCCC3)nc(-c2ccncn2)cc1=O .
1 (yes)

State whether 40 µM exceeds IC50 recorded for Cn1c(NCCCCCCNc2c3c(nc4cc(Br)ccc24)CCCC3)nc(-c2ccncc2)cc1=O .
0 (no)

---
State whether 40 µM exceeds IC50 recorded for Cn1c(NCCNc2c3c(nc4cc(Cl)ccc24)CCCC3)nc(-c2ccncc2)cc1=O .
1 (yes)

State whether 40 µM exceeds IC50 recorded for Cn1c(NCCNc2c3c(nc4ccc(Br)cc24)CCCC3)nc(-c2ccncc2)cc1=O .
1 (yes)

State whether 40 µM exceeds IC50 recorded for Cc1ccc2c(NCCCCCCNc3nc(-c4ccncc4)cc(=O)n3C)c3c(nc2c1)CCCC3 .
0 (no)

State whether 40 µM exceeds IC50 recorded for Cn1c(NCCCCCCCNc2c3c(nc4cc(Cl)ccc24)CCCC3)nc(-c2ccncc2)cc1=O .
1 (yes)
